# Test system: HIV-1IIIB virus strains
# EXPERIMENT_SUMMARY: Assay of anti-HIV activity (MT-2 cell model), p24 antigen ELISA
# Format: cell-based
# CONDITION_PARAMETERS: MT-2 cell line; ratio of cytotoxicity CC50 to activity EC50
PARAMETER_MEASURED: SI (CC50/EC50)

SMILES_RECORD	STUDY_TARGET	SI (CC50/EC50)
Cc1cc(Br)cc(C)c1Oc1cc(Nc2ccc(C#N)cc2)c([N+](=O)[O-])cc1[N+](=O)[O-]	HIV-1IIIB virus strains	>714
Cc1cc(C#N)cc(C)c1Oc1cc(Nc2ccc(C#N)cc2)c(N)cc1[N+](=O)[O-]	HIV-1IIIB virus strains	4715
Cc1cc(C)c(Nc2cc(Nc3ccc(C#N)cc3)c([N+](=O)[O-])cc2[N+](=O)[O-])c(C)c1	HIV-1IIIB virus strains	>556
Cc1cc(Br)cc(C)c1Oc1cc(Nc2ccc(C#N)cc2)c(N)cc1[N+](=O)[O-]	HIV-1IIIB virus strains	>3054
Cc1cccc(C)c1Oc1cc(Nc2ccc(C#N)cc2)c([N+](=O)[O-])cc1[N+](=O)[O-]	HIV-1IIIB virus strains	>27

*Q* Assign SI (CC50/EC50) to the following record: Cc1cc(C)c(Oc2cc(Nc3ccc(C#N)cc3)c([N+](=O)[O-])cc2[N+](=O)[O-])c(C)c1
*A* 41.09

*Q* Assign SI (CC50/EC50) to the following record: Cc1cccc(C)c1Oc1ccc([N+](=O)[O-])c(Nc2ccc(C#N)cc2)c1
*A* >85

*Q* Assign SI (CC50/EC50) to the following record: Cc1cc(C#N)cc(C)c1Oc1ccc([N+](=O)[O-])c(Nc2ccc(C#N)cc2)c1
*A* 8.53

*Q* Assign SI (CC50/EC50) to the following record: Cc1cc(Br)cc(C)c1Oc1cc(Nc2ccc(C#N)cc2)c(N)cc1N
*A* 132

*Q* Assign SI (CC50/EC50) to the following record: Cc1cc(C#N)cc(C)c1Oc1cc(Nc2ccc(C#N)cc2)c(N)cc1N
*A* 2425

*Q* Assign SI (CC50/EC50) to the following record: Cc1cc(Br)cc(C)c1Oc1ccc(N)c(Nc2ccc(C#N)cc2)c1
*A* 91

*Q* Assign SI (CC50/EC50) to the following record: CC(=O)ON(c1cc(Nc2ccc(C#N)cc2)c([N+](=O)[O-])cc1[N+](=O)[O-])c1c(C)cc(C)cc1C
*A* 23.45
